experiment: Microsomal stability assay, human liver microsomes; conditions: human liver microsomal data;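 note: pooled human liver microsomes at 0.25 mg/mL with 1 µM compound and NADPH at 37 °C, pH 7.4, for 30 min, unchanged parent quantified by LC-MS/MS against the 0 min sample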
Mark Not met for HLM values under 60 µL/min/mg, and Met for everything at or above.

Worked set:
{"COMPOUND": "CO[C@H](C)C(=O)N[C@@H](Cc1cc(F)cc(-c2nccs2)c1)[C@H](O)CN[C@H]1CC2(CCC2)Oc2ccc(CC(C)C)cc21", "CATEGORY LABEL": "Met"}
{"COMPOUND": "C#Cc1cccc(C[C@H](NC(=O)C(OC)OC)[C@H](O)CN[C@H]2CC3(CCC3)Oc3ncc(CC(C)(F)F)cc32)c1", "CATEGORY LABEL": "Not met"}
{"COMPOUND": "COCC(=O)N[C@@H](Cc1cc(-c2nccs2)cc(-c2nccs2)c1)[C@H](O)CN[C@H]1CC2(CCC2)Oc2ncc(CC(C)(C)C)cc21", "CATEGORY LABEL": "Met"}
{"COMPOUND": "COCC(=O)N[C@@H](Cc1cc(F)cc(F)c1)[C@H](O)CN[C@H]1CC2(CCC2)Oc2c(-c3nccs3)cc(CC(C)(C)C)cc21", "CATEGORY LABEL": "Met"}
{"COMPOUND": "CO[C@H](C)C(=O)N[C@@H](Cc1cccc(F)c1)[C@H](O)CN[C@H]1CC2(CCC2)Oc2c(-c3cscn3)cc(CC(C)C)cc21", "CATEGORY LABEL": "Met"}

Given CC(C)(C)Cc1cnc2c(c1)[C@@H](NC[C@@H](O)[C@H](Cc1ccc3c(c1)OCO3)NC(=O)[C@H]1CCO1)CC1(CCC1)O2 , state whether its HLM is at least 60 µL/min/mg.
Not met

Given CC(C)Cc1cnc2c(c1)[C@@H](NC[C@H](O)[C@@H](Cc1cccc(-c3nccs3)c1)NC(=O)[C@@H]1CCCO1)CC1(CCC1)O2 , state whether its HLM is at least 60 µL/min/mg.
Met

Given C#Cc1cccc(C[C@H](NC(=O)CC)[C@H](O)CN[C@H]2CC3(CCC3)Oc3ncc(CC(C)(C)C)cc32)c1 , state whether its HLM is at least 60 µL/min/mg.
Not met

---

molecular target: Beta Secretase enzyme (BACE) (Homo sapiens, UniProt P56817); experiment: In vitro enzymatic BACE FRET (fluorescence resonance energy transfer) assay; type: biochemical; conditions: BACE enzyme assay, IC50's in uM; read-out: BACE1 FRET assay
Sequence (P56817 46-501): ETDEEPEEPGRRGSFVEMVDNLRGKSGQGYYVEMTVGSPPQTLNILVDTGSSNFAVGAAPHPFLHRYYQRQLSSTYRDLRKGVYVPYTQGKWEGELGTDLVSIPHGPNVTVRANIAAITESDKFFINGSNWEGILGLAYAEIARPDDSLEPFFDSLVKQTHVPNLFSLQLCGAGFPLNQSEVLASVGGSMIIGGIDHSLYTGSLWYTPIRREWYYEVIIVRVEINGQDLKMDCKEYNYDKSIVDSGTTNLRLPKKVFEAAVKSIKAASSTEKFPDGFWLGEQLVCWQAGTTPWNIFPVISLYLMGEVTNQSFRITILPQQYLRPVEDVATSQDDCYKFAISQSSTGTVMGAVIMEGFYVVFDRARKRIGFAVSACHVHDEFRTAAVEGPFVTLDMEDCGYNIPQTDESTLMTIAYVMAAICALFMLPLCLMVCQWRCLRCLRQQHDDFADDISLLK
MEASURED PROPERTY: IC50 (µM)
Just the number in µM, nothing appended.

Endpoint output: IC50 of COCC(=O)N[C@@H](Cc1cccc(-c2nccs2)c1)[C@H](O)CN[C@H]1CC2(CCC2)Oc2cnc(CC(C)(C)C)cc21 . Value?
0.019

Endpoint output: IC50 of COCC(=O)N[C@@H](Cc1cccc(-c2nccs2)c1)[C@H](O)CN[C@H]1CC2(CCC2)Oc2ncc([C@@H]3CC3(C)C)cc21 . Value?
0.004

Endpoint output: IC50 of COCC(=O)N[C@@H](Cc1cccc(Br)c1)[C@H](O)CN[C@H]1CC2(CCC2)Oc2ncc(CC(C)C)cc21 . Value?
0.004

Endpoint output: IC50 of CC(C)(C)Cc1cnc2c(c1)[C@@H](NC[C@@H](O)[C@H](Cc1cc(F)cc(-c3nccs3)c1)NC(=O)C1(C)CC1)CC1(CCC1)O2 . Value?
0.036

Endpoint output: IC50 of CO[C@H](C)C(=O)N[C@@H](Cc1cncs1)[C@H](O)CN[C@H]1CC2(CCC2)Oc2c1cc(CC(C)(C)C)nc2-c1ccccn1 . Value?
0.071

Endpoint output: IC50 of CO[C@H](C)C(=O)N[C@@H](Cc1cc(Cl)ccc1F)[C@H](O)CN[C@H]1CC2(CCC2)Oc2ncc(CC(C)(C)C)cc21 . Value?
0.005

---

molecular target: Beta Secretase enzyme (BACE) (Homo sapiens, UniProt P56817); assay: In vitro enzymatic BACE FRET (fluorescence resonance energy transfer) assay; assay type: biochemical; conditions: read-out: BACE1 FRET assay (IC50);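 note: fluorescence read after 1 h with 50 nM quenched peptide substrate spanning the BACE cleavage site, in pH 4.2 acetate buffer containing 10% DMSO and nonionic detergent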
MEASURED PROPERTY: pIC50
In simple prose, pIC50 is minus the logarithm base ten of a concentration in moles per litre.

Past entries and their recorded results:
{"STRUCTURE": "CO[C@H](C)C(=O)N[C@@H](Cc1ccc2c(c1)OCO2)[C@H](O)CN[C@H]1CC2(CCC2)Oc2ncc([C@@H]3CC3(C)C)cc21", "REPORTED VALUE": 7.74}
{"STRUCTURE": "CO[C@H](C)C(=O)N[C@@H](Cc1ccc2c(c1)OCO2)[C@H](O)CN[C@H]1CC2(CCC2)Oc2c1cc(CC(C)C)nc2Cl", "REPORTED VALUE": 7.52}
{"STRUCTURE": "COCC(=O)N[C@@H](Cc1cccc(C#N)c1)[C@H](O)CN[C@H]1CC2(CCC2)Oc2c(-c3ccncc3)cc(CC(C)C)cc21", "REPORTED VALUE": 7.92}
{"STRUCTURE": "CC(=O)N[C@@H](Cc1cccc(-n2ccnc2)c1)[C@H](O)CN[C@H]1CC2(CCC2)Oc2ccc(CC(C)(C)C)cc21", "REPORTED VALUE": 7.12}
{"STRUCTURE": "CC(=O)N[C@@H](Cc1cccc(-c2cncs2)c1)[C@H](O)CN[C@H]1CC2(CCC2)Oc2ncc(CC(C)(C)C)cc21", "REPORTED VALUE": 8.22}

Endpoint output: pIC50 of CC(=O)N[C@@H](Cc1cccc(-c2ccncc2)c1)[C@H](O)CN[C@H]1CC2(CCC2)Oc2ccc(CC(C)(C)C)cc21 . Value?
7.51

---

biological target: Beta Secretase enzyme (BACE) (Homo sapiens); assay: In vitro enzymatic BACE FRET (fluorescence resonance energy transfer) assay; format: biochemical; conditions: BACE enzyme assay, IC50's in uM; read-out: BACE1 FRET assay
MEASURED PROPERTY: IC50 (µM)
Just the number in µM, nothing appended.

{"MOLECULE": "C#Cc1cccc(C[C@H](NC(=O)C(OC)OC)[C@H](O)CN[C@H]2CC3(CCC3)Oc3ncc(CC(C)(F)F)cc32)c1", "IC50 (µM)": 0.007}
{"MOLECULE": "C#Cc1cc(C[C@H](NC(=O)COC)[C@H](O)CN[C@H]2CC3(CCC3)Oc3ncc(CC(C)C)cc32)ccc1F", "IC50 (µM)": 0.01}
{"MOLECULE": "Cc1nc(CN2CCO[C@H](C(=O)N[C@@H](Cc3ccc(F)cc3)[C@H](O)CN[C@H]3CC4(CCC4)Oc4ncc(CC(C)(C)C)cc43)C2)cs1", "IC50 (µM)": 0.037}
{"MOLECULE": "CC(C)(C)Cc1cnc2c(c1)[C@@H](NC[C@@H](O)[C@H](Cc1ccc3c(c1)OCO3)NC(=O)C1CCS(=O)(=O)C1)CC1(CCC1)O2 (stereo partly drawn)", "IC50 (µM)": 0.057}
{"MOLECULE": "COCC(=O)N[C@@H](Cc1cccc(C(C)=O)c1)[C@H](O)CN[C@H]1CC2(CCC2)Oc2ncc(CC(C)(C)C)cc21", "IC50 (µM)": 0.007}
{"MOLECULE": "C#Cc1ccc(C[C@H](NC(=O)[C@@H](C)OC)[C@H](O)CN[C@H]2CC3(CCC3)Oc3ncc(CC(C)(C)C)cc32)cc1", "IC50 (µM)": 0.251}
{"MOLECULE": "COCC(=O)N[C@@H](Cc1cc(Br)cc(-c2nccs2)c1)[C@H](O)CN[C@H]1CC2(CCC2)Oc2ncc(CC(C)(C)C)cc21", "IC50 (µM)": 0.013}
{"MOLECULE": "CC#Cc1ccc2c(c1)[C@@H](NC[C@@H](O)[C@H](Cc1cc(F)cc(-c3nccs3)c1)NC(=O)COC)CC1(CCC1)O2", "IC50 (µM)": 0.669}
{"MOLECULE": "CC(C)(C)Cc1cnc2c(c1)[C@@H](NC[C@@H](O)[C@H](Cc1ccc3c(c1)OCO3)NC(=O)C(C)(C)C)CC1(CCC1)O2", "IC50 (µM)": 6.25}
{"MOLECULE": "C#Cc1cccc(C[C@H](NC(=O)[C@@H]2CCCO2)[C@H](O)CN[C@H]2CC3(CCC3)Oc3ncc(CC(C)(C)C)cc32)c1", "IC50 (µM)": 0.005}

Endpoint output: IC50 of CO[C@H](C)C(=O)N[C@@H](Cc1cccc(-c2nccs2)c1F)[C@H](O)CN[C@H]1CC2(CCC2)Oc2ncc(CC(C)(C)C)cc21 . Value?
0.157

Endpoint output: IC50 of CO[C@H](C)C(=O)N[C@@H](Cc1cc(F)cc(Cl)c1)[C@H](O)CN[C@H]1CC2(CCC2)Oc2ncc(CC(C)(F)F)cc21 . Value?
0.022

---

test system: Aβ40 in conditioned medium of cells stably expressing Amyloid Precursor Protein (APP); assay: In vitro BACE cell-based assay (Aβ40 in conditioned medium, sandwich ELISA); settings: Homo sapiens, HEK293, HEK cell-based assay IC50; read-out: HEK cell assay;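 note: compounds added as a dilution series, secreted peptide quantified by europium time-resolved fluorescence readout, potency fitted from percent of control versus compound concentration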
Some compounds, each annotated with its measured pIC50.
In simple prose, pIC50 is minus the logarithm base ten of a concentration in moles per litre.

Past entries and their recorded results:
{"COMPOUND": "CO[C@H](C)C(=O)N[C@@H](Cc1cc(F)cc(-c2nccs2)c1)[C@H](O)CN[C@H]1CC2(CCC2)Oc2ncc(CC(C)(C)F)cc21 [compound 742]", "REPORTED VALUE": 7.35}
{"COMPOUND": "COCC(=O)N[C@@H](Cc1cccc(-n2ccnc2)c1)[C@H](O)CN[C@H]1CC2(CCC2)Oc2ncc(CC(C)(C)C)cc21 [Example 698]", "REPORTED VALUE": 8.05}
{"COMPOUND": "CC(C)(C)Cc1cnc2c(c1)[C@@H](NC[C@@H](O)[C@H](Cc1ccc(F)cc1)NC(=O)[C@@H]1CN(Cc3ccccc3)CCO1)CC1(CCC1)O2 [compound 711]", "REPORTED VALUE": 6.91}
{"COMPOUND": "COCC(=O)N[C@@H](Cc1cc(F)cc(F)c1)[C@H](O)CN[C@H]1CC2(CCC2)Oc2c1cc(CC(C)C)nc2-c1nccn1C [compound 714]", "REPORTED VALUE": 7.77}
{"COMPOUND": "CC(=O)N[C@@H](Cc1ccc(F)c(-n2ccnc2)c1)[C@H](O)CN[C@H]1CC2(CCC2)Oc2ncc(CC(C)(C)C)cc21 [Example 426]", "REPORTED VALUE": 7.96}

API: the following record is the query input.
Give pIC50 (Aβ40 in conditioned medium of cells stably expressing Amyloid Precursor Protein (APP)) of the following compound: COCC(=O)N[C@@H](Cc1ccc(F)c(-c2cscn2)c1)[C@H](O)CN[C@H]1CC2(CCC2)Oc2ncc(CC(C)(C)C)cc21 [compound 683]
7.51
